parameter-measured: melting point

{"molecule": "CCOc1cc(C(=O)c2c(-c3ccc(OC)cc3)sc3cc(OC)ccc23)cc(OCC)c1OCC", "parameter-measured": "melting point", "value-reported": "108 to 110 °C"}
{"molecule": "COc1ccc(-c2nn3c(N4CCCC4)nnc3c3ccccc23)cc1", "parameter-measured": "melting point", "value-reported": "196 to 198 °C"}
{"molecule": "COC(=O)NC(=O)c1nc(Cl)c(Cl)[nH]1", "parameter-measured": "melting point", "value-reported": "247 °C"}
{"molecule": "CN1C(=O)CC[C@]2(C)c3ccc(-c4ccc(F)cc4)cc3CC[C@@H]12", "parameter-measured": "melting point", "value-reported": "121 to 122 °C"}
{"molecule": "OCCCC1(c2ccccc2)OCCO1", "parameter-measured": "melting point", "value-reported": "39 to 42 °C"}
{"molecule": "CN(C)Cc1cnc2n1-c1ccc(Br)cc1C(c1ccccn1)=NC2", "parameter-measured": "melting point", "value-reported": "200 to 202 °C"}
{"molecule": "NC(=O)c1n[nH]c2c(=O)[nH]c3cc(Cl)ccc3c(=O)c12", "parameter-measured": "melting point", "value-reported": "224 to 225 °C"}
{"molecule": "Cc1cccc2c1C(=O)/C(=C(\\N)c1ccccc1)S2", "parameter-measured": "melting point", "value-reported": "198 to 200 °C"}
{"molecule": "CC(=Cc1c(Cl)cc(N(C)C)cc1Cl)[N+](=O)[O-]", "parameter-measured": "melting point", "value-reported": "105 to 110 °C"}
{"molecule": "CC(Cc1c[nH]c2ccccc12)(NC(=O)OC1C2CC3CC(C2)CC1C3)C(=O)NCCc1ccccn1 (configuration not stated)", "parameter-measured": "melting point", "value-reported": "89 to 91 °C"}
{"molecule": "O=C(O)c1ccc(C(=O)Nc2cc3c4c(c2)CCCC4CCC3)nc1", "parameter-measured": "melting point", "value-reported": "252 to 253 °C"}
{"molecule": "CCC(CS(=O)(=O)c1ccc(-c2ccc(OC)cc2)cc1)N(O)C=O (configuration not stated)", "parameter-measured": "melting point", "value-reported": "199 to 200 °C"}
{"molecule": "Cc1ccccc1OCCC(=O)N(C)c1ccccc1", "parameter-measured": "melting point", "value-reported": "76 °C"}
{"molecule": "CC1(CN2CCC(=O)CC2)Cn2cc([N+](=O)[O-])nc2O1 (configuration not stated)", "parameter-measured": "melting point", "value-reported": "124 to 126 °C"}
{"molecule": "CCCN(CCCCNc1ncc(Cc2ccncc2)c(=O)[nH]1)c1ccccn1", "parameter-measured": "melting point", "value-reported": "58 to 60 °C"}
{"molecule": "CC(C)OC(=O)c1ccc(Cl)cc1S(N)(=O)=O", "parameter-measured": "melting point", "value-reported": "140 to 142 °C"}
{"molecule": "CCOC(=O)C1(Cc2ccc(OC)c(OC)c2)C(=O)NCC1c1ccc(OC)c(OC)c1 (configuration not stated)", "parameter-measured": "melting point", "value-reported": "146 to 149 °C"}
{"molecule": "O=C(O)CCC(=O)c1ccc(N2CCC3(CC2)OCCO3)cc1", "parameter-measured": "melting point", "value-reported": "130 to 131 °C"}
{"molecule": "O=C(Nc1ccc2c(c1)nc1n2CCC1)c1cc2nc(C(F)(F)F)ccc2n1Cc1ccncc1", "parameter-measured": "melting point", "value-reported": "130 to 131 °C"}
{"molecule": "COc1cc(Nc2c(C#N)cnc3cc(-c4ccc(CN5CCOCC5)s4)ccc23)c(Cl)cc1Cl", "parameter-measured": "melting point", "value-reported": "188 °C"}
{"molecule": "O=C(O)c1cn2c(n1)COc1ccc(Cl)cc1-2", "parameter-measured": "melting point", "value-reported": "276 to 278 °C"}
{"molecule": "CCN1C(=O)C(C)(C)C(=O)N(C)c2cc(CN(CCn3c(=O)ccc4ccccc43)Cc3ccc(OC)nc3C)ccc21", "parameter-measured": "melting point", "value-reported": "143 to 144 °C"}
{"molecule": "O=S=c1cc(-c2ccc(Cl)cc2)ss1", "parameter-measured": "melting point", "value-reported": "123 to 125 °C"}
{"molecule": "O=[N+]([O-])c1ccc(Br)cc1-c1cc(-c2ccc(Br)cc2)on1", "parameter-measured": "melting point", "value-reported": "184 to 185 °C"}
{"molecule": "CSc1ccc(CN(C2CCOCC2)S(=O)(=O)c2ccc(Cl)cc2)cc1", "parameter-measured": "melting point", "value-reported": "124 to 127 °C"}
{"molecule": "CN(C)CCOc1ccc2[nH]c(C(=O)N3CC(CCl)c4c3cc([N+](=O)[O-])c3cc(S(=O)(=O)NCCO)ccc43)cc2c1 (configuration not stated)", "parameter-measured": "melting point", "value-reported": "205 to 210 °C"}
{"molecule": "O=C(O)c1ccc(C(=O)NOCC2CCc3ccccc3C2)cc1 (configuration not stated)", "parameter-measured": "melting point", "value-reported": "203 to 206 °C"}
{"molecule": "CCOC(=O)C(=CNN(C)C)C(=O)c1cc(F)c(F)c(F)c1F", "parameter-measured": "melting point", "value-reported": "81 °C"}
{"molecule": "CC(C)(C)[Si](C)(C)O[C@@H]1C[C@]2(O)C[C@@H](OC2=O)[C@@H]1O", "parameter-measured": "melting point", "value-reported": "90 to 94 °C"}
{"molecule": "N#CCc1ccc(-n2cc(Cl)cn2)cc1Cl", "parameter-measured": "melting point", "value-reported": "140 °C"}
{"molecule": "Cc1cc(C)c2c(c1)C=C(/C=C/C=C/C=C/C(=O)O)CO2", "parameter-measured": "melting point", "value-reported": "208 to 210 °C"}
{"molecule": "O=C(O)CC1ON(C(=O)OCc2ccccc2)C(=O)C1N1C(=O)c2ccccc2C1=O (configuration not stated)", "parameter-measured": "melting point", "value-reported": "160 to 162 °C"}
